Reference source for all entries: PubChem BioAssay (Tox21)

METHOD: qHTS RealTime-Glo MT Cell Viability Assay in HEK293 cells - 40 hour (AID 1224874); note: % is set by controls: 0 for no effect and ±100 for the full control effect; nearly all actives have a fitted effect of over 50% in size
STUDY_CONDITIONS: RealTime-Glo luminescence; active compounds read low
Source text: U.S. Tox21 Program National Center for Advancing Translational Sciences [NCATS] NIH Chemical Genomics Center [NCGC] U.S. Environmental Protection Agency [EPA] National Institutes of Environmental Health Sciences [NIEHS] National Toxicology Program [NTP] U.S. Food and Drug Administration [FDA] Tox21 Assay Overview: Measure of cell viability is critical in the cell-base assay. Analysis of cell viability is necessary for the characterization of cell responses to cytotoxic drugs and environmental stress. […]
Results filed as inconclusive are left out.
PROPERTY_NAME: max response (%)

Nc1ccc(/C=C/c2ccc(N)cc2S(=O)(=O)O)c(S(=O)(=O)O)c1    2.9
CCCCCCCC[Si](OCC)(OCC)OCC    0.929
CCOC(=O)OCC/C(SC(=O)OCC)=C(\C)N(C=O)Cc1cnc(C)nc1N    4.82
O=C(Nc1cccc(C2=NCCN2)c1)Nc1cccc(C2=NCCN2)c1    -2.84
CCN(CC)C(=O)C1CN2CCc3cc(OC)c(OC)cc3C2CC1OC(C)=O (centres undefined)    -4.78
O=c1[nH]c(=O)c2[nH]c(=O)[nH]c2[nH]1    10.6
CC(CC(=O)O)CC(C)(C)C (centres undefined)    -0.126
CCCCC(=O)N(C)C    1.13
C1CCN2C[C@@H]3C[C@@H](CN4CCCC[C@@H]34)[C@H]2C1    1.31
COc1cc([N+](=O)[O-])ccc1N    -15.5
CCC1Nc2cc(Cl)c(S(N)(=O)=O)cc2S(=O)(=O)N1 (centres undefined)    -2.14
C=CCOC(=O)c1ccc(C(=O)OCC=C)c(C(=O)OCC=C)c1    4.3
Cc1ccc(S(=O)(=O)NC(=O)NC2CCCCCCC2)cc1    0.902
N#CCCOCCOCCC#N    9.79
C[C@H](CCC(=O)O)[C@H]1CC[C@H]2[C@@H]3[C@H](O)C[C@@H]4C[C@H](O)CC[C@]4(C)[C@H]3C[C@H](O)[C@]12C    -1.02
C1=C\CC/C=C\CC/1    16.6
CC(C)SCc1ccco1    4.71
CCCCC[Si](OCC)(OCC)OCC    -19.8
C=CC(C)(O)CC/C=C(\C)CC (centres undefined)    5.46
NC(=O)NNC(N)=O    19.6
CC(=O)N(CC(O)CO)c1c(I)c(C(=O)NCC(O)CO)c(I)c(C(=O)NCC(O)CO)c1I (centres undefined)    6.97
Cc1ccccc1OCC1CO1 (centres undefined)    -1.66
CC(C)COC(=O)/C=C/c1ccccc1    -4.89
O=C(Oc1ccccc1C(=O)O)c1ccccc1O    4.65
Nc1nc(=O)n([C@@H]2O[C@H](CO)[C@@H](O)[C@@H]2F)cc1I    3.93
COc1ccc(OC)c(NC(=O)CC(C)=O)c1    2.24
NC(=O)C1(N2CCCCC2)CCN(CCCC(=O)c2ccc(F)cc2)CC1    -22.3
Cc1ccc2c(c1)c1c3n2CCNC3CCC1 (centres undefined)    0.813
COCCOCCOCCOC    2.64
CN(C)CCOCCN(C)CCO    -7.32
C1=CCC(c2ccccc2)CC1 (centres undefined)    4.33
NC(Cc1c[nH]c2ccccc12)C(=O)O (centres undefined)    13.4
Cc1nc2ccccc2c(=O)o1    5.55
O=C(c1ccc2c(c1)C(=O)OC2=O)c1ccc2c(c1)C(=O)OC2=O    -1.77
CCC(CO)CO    -4.1
CCCCCCCCCCCCCCCC(=O)NCCO    -2.85
CCCCCCCCC(=O)OCC    9.15
CN=C(NC#N)NCCSCc1csc(N=C(N)N)n1    1.73
CCCCC/C=C/CC(=O)OC    -0.743
CCN(Cc1cccc(S(=O)(=O)O)c1)c1ccccc1    0.413
Cc1cc(O)c2c(c1)C(=O)c1cccc(O)c1C2=O    3.33
CCNC(=O)NCCCOc1cccc(CN2CCCCC2)c1    -3.36
CCN(CCC#N)c1ccccc1    2.36
O=C(O)C(=O)Nc1cccc(-c2nn[nH]n2)c1    0.908
COc1cccc2sc(N)nc12    -6.71
CCN1CN(CC)CN(CC)C1    4.59
CCCO    1.64
O=CO    -0.6
O=C(O)Cc1cccc(-c2cc(CCCCCCc3ccc(O[C@H]4O[C@H](CO)[C@@H](O)[C@H](O)[C@@H]4O)c(-c4cccc(CC(=O)O)c4)c3)ccc2O[C@H]2O[C@H](CO)[C@@H](O)[C@H](O)[C@@H]2O)c1    -2.4
CO/N=C(/C(=O)N[C@@H]1C(=O)N2C(C(=O)O)=C(Cn3nnc(C)n3)CS[C@H]12)c1csc(N)n1    1.17
CCCCCCCCCCCCCC(=O)OC    12.2
CCCCC(CC)C(=O)OC(C)C (centres undefined)    3.8
CNC(=O)NC    1.12
CC(=O)OC[C@H]1O[C@@H](OC(C)=O)[C@H](OC(C)=O)[C@@H]1OC(C)=O    5.33

----------
TARGET_SYSTEM: Aryl hydrocarbon receptor (Homo sapiens)
METHOD: qHTS assay to identify small molecule that activate the aryl hydrocarbon receptor (AhR) signaling pathway (AID 743085); note: nearly all actives have a fitted effect of over 15% in size;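 for activation: HG2L7.5c1 human HepG2 liver cells with stably integrated DRE-driven firefly reporter; % is set by controls: 0 for no effect and ±100 for the full control effect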
STUDY_CONDITIONS: HepG2 AhR-luc (HG2L7.5c1), luciferase, 24 h; series mostly up to 70.3 µM
Results filed as inconclusive are left out. Activity calls are given as the source filed them. Calls come from the whole dose curve; as a rule, active = well fitted activation curve with a large enough effect in the repeat runs; inconclusive = weak or mixed curves; inactive = no such curve, though single readings can be large or run the other way.
Possible outcomes: active, inactive

CCN(CCC#N)c1ccccc1    inactive
CCOC(=O)CCCCCCCCC(=O)OCC    inactive
CCCCCCCCCCCCOC(C)=O    inactive
O=C(c1ccc2c(c1)C(=O)OC2=O)c1ccc2c(c1)C(=O)OC2=O    inactive
CC(=O)OCCCc1ccccc1    inactive
CCCCCCCCOC(C)=O    inactive
CCOC(=O)C(C)(C)C    inactive
C=COCCOCCOC=C    inactive
C1CCN2C[C@@H]3C[C@@H](CN4CCCC[C@@H]34)[C@H]2C1    inactive
CCC(=O)c1ccc(O)cc1    inactive
COC(/C=C(\C)CCC=C(C)C)OC    inactive
CCCC(C)CC (centres undefined)    inactive
NC(=O)NNC(N)=O    inactive
CC(C)COC(=O)CCCCC(=O)OCC(C)C    inactive
O=S1(=O)CCCC1    inactive
COc1cccc2sc(N)nc12    active
CCC(CO)CO    inactive
C=C(C)C(=O)OCCCCCCOC(=O)C(=C)C    inactive
CC(C)COC(=O)/C=C/c1ccccc1    inactive
Cc1cc(O)c2c(c1)C(=O)c1cccc(O)c1C2=O    active
CCCCCCCCC(=O)OCC    inactive
O=C1c2ccccc2-c2ccccc21    inactive
C1=C\CC/C=C\CC/1    inactive
CCCCCCCCCCCCCC(=O)OC    inactive
O=C1NC2NC(=O)NC2N1 (centres undefined)    inactive
C=CCOC(=O)c1ccc(C(=O)OCC=C)c(C(=O)OCC=C)c1    inactive
Nc1cc(C(=O)O)ccc1Cl    inactive
CNC(=O)C(c1ccccc1)c1ccccc1    inactive
OC[C@@H](O)[C@H](O)[C@@H](O)[C@@H](O)CO    inactive

----------
METHOD: Caspase-3/7 induction in HepG2 cells by small molecules, qHTS cell viability counter screen (AID 1346981); note: % is set by controls: 0 for no effect and ±100 for the full control effect; nearly all actives have a fitted effect of over 30% in size
STUDY_CONDITIONS: CellTiter-Fluor fluorescence, 17 h; series mostly up to 92.4 µM
Results filed as inconclusive are left out. Active and inactive are the calls of the source. Calls follow the shape of the dose curve; as a rule, active = well fitted cell-killing curve with a large enough effect in the repeat runs; inconclusive = weak or mixed curves, or effect the other way; inactive = flat fitted curve, though single readings scatter.
PROPERTY_NAME: activity change, negative = cytotoxicity

c1ccccc1    inactive
NS(=O)(=O)c1cc2c(cc1Cl)NC(CC1CCCC1)NS2(=O)=O (stereo unspecified)    inactive
CCC(O)C(C)(C)C (stereo unspecified)    inactive
CCOC(=O)OCC/C(SC(=O)OCC)=C(\C)N(C=O)Cc1cnc(C)nc1N    inactive
CCOC(=O)CCCCCCCCC(=O)OCC    inactive
CCC1COC(=O)O1 (stereo unspecified)    inactive
O=C(O)c1ccc(OCCN2CCCCC2)cc1    inactive
O=[Si]=O    inactive
CC(C)CCCCCCOC(=O)C1CCCCC1C(=O)OCCCCCCC(C)C (stereo unspecified)    inactive
COCC(=O)Nc1c(I)c(C(=O)NCC(O)CO)c(I)c(C(=O)N(C)CC(O)CO)c1I (stereo unspecified)    inactive
CCC(C)(C)C1CCC(=O)CC1    inactive
O=C(/C=C/c1ccccc1)NCCO    inactive
Cc1ncc([N+](=O)[O-])n1CC(O)CCl (stereo unspecified)    inactive
COc1cc2c3cc1Oc1cc(ccc1O)C[C@@H]1c4c(cc(OC)c(O)c4Oc4ccc(cc4)C[C@@H]3N(C)CC2)CC[N+]1(C)C    inactive
Cc1cccc(Nc2ccncc2S(=O)(=O)NC(=O)NC(C)C)c1    inactive
CC(=O)OCC(=O)[C@@]1(O)[C@H](OC(C)=O)C[C@H]2[C@@H]3CCC4=CC(=O)C=C[C@]4(C)[C@@]3(F)[C@@H](O)C[C@@]21C    inactive
CCCCCCCCCCCCC1CO1 (stereo unspecified)    inactive
O=S1(=O)CCCC1    inactive
COC(/C=C(\C)CCC=C(C)C)OC    inactive
CC(C)c1ccccc1O    inactive
CC(C)=CC(C)(C)C    inactive
